test: Plasma pharmacokinetics of XL184 and metabolites by radio-quantitative method; settings: human, in vivo, po, 175 mg, Plasma concentration, 0.50 h; individual subject; single 175 mg oral [14C]-XL184 (100 μCi), healthy male subjects; radio-quantitative method
PARAMETER: concentration at 0.5 h (ng/mL)

- COc1cc2nccc(Oc3ccc(NC(=O)C4(C(=O)Nc5ccc(F)cc5)CC4)cc3)c2cc1OC: 283

----------
experiment: clinical; conditions: in vivo
The following compounds are listed with their measured kel values.
PARAMETER: kel (h⁻¹)

- COc1cc2c(Oc3ccc(NC(=O)C4(C(=O)Nc5ccc(F)cc5)CC4)cc3)cc[n+]([O-])c2cc1OC [XL184-N-Oxide]: 0.00846
- COc1cc2nccc(Oc3ccc(NC(=O)C4(C(=O)O)CC4)cc3)c2cc1OC [XL184-Half-Dimer]: 0.00807
